Entry source: the supplement of paper PMC12338614

STK11 functional score values, listed per item
B1: library; numbered along this chain (parent)
chain: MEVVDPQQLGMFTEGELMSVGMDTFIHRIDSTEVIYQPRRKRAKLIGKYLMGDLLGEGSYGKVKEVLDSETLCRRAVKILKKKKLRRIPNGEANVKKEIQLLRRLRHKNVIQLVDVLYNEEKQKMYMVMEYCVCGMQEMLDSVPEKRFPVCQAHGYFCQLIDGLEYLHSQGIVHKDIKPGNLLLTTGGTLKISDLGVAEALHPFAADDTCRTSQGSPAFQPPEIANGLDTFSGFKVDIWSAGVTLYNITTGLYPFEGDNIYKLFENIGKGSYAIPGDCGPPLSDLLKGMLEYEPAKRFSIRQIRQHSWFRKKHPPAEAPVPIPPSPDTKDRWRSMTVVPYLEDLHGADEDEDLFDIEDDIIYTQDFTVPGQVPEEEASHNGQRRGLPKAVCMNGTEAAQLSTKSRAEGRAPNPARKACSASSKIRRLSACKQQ

variants of: B1; experiment: STK11 functional score (HeLa growth suppression), rescaled enrichment; synonymous median = 1, nonsense median = 0 (normalised score); settings: with HeLa; variant type: missense
Reply with the value as a number alone.

Below are worked cases with known answers.
>>> df
   variant_designation  measured_result
0                P319V            0.772
1                Y261P             1.15
2                G135T             1.66

Dear colleague, I am looking for the recorded STK11 functional score of the following variant: `Y340F`
1.04

Dear colleague, I am looking for the recorded STK11 functional score of the following variant: `T71N`
0.961

Dear colleague, I am looking for the recorded STK11 functional score of the following variant: `R103W`
0.732

Dear colleague, I am looking for the recorded STK11 functional score of the following variant: `I177G`
-0.017

Dear colleague, I am looking for the recorded STK11 functional score of the following variant: `V34I`
1.1

Dear colleague, I am looking for the recorded STK11 functional score of the following variant: `V63G`
0.711
